Target: FGFR3-IIIb (human)
Sequence (chain, as listed by the source limits assumed): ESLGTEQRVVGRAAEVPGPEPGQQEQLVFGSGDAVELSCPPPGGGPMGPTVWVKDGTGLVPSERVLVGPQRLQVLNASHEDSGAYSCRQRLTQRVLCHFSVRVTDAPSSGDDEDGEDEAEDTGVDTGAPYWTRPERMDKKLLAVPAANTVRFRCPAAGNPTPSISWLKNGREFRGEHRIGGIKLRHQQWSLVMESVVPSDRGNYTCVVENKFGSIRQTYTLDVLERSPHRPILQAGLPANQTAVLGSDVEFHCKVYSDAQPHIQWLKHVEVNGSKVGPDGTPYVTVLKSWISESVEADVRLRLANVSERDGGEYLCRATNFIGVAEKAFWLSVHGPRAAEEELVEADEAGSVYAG
Test: SPR (Biacore T100), IgG captured by anti-human Fc, FGFR flowed
pKd: −log10 of the molar value.

binder	pKd
2B.1.1 (antibody, human IgG1, kappa, V domains shown) VH: EVQLVESGGGLVQPGGSLRLSCAASGFTFTSTGISWVRQAPGKGLEWVGRYWAWDGSTNYADSVKGRFTISADTSKNTAYLQMNSLRAEDTAVYYCARTYGIYDLYVDYTEYVMDYWGQGTLVTVSS VL: DIQMTQSPSSLSASVGDRVTITCRASQDVDTSLAWYKQKPGKAPKLLIYSASFLYSGVPSRFSGSGSGTDFTLTISSLQPEDFATYYCQQSTGHPQTFGQGTKVEIKR	10.05
